- systemName: T1, Dapper C-terminal peptide (Rox-DprC) (Xenopus laevis)
- T1 chain: Rox-SGSLKLMTTV
- experimentalDetails: fluorescence polarization
pKd: −log10 of the molar value. No end group written: not given here.
testReadout: pKd

Exam item: GET /values?readout=pKd&item= Dishevelled PDZ domain (Dvl1) PDZ (protein) NIITVTLNMERHHFLGISIVGQSNDRGDGGIYIGSIMKGGAVAADGRIEPGDMLLQVNDVNFENMSNDDAVRVLREIVS
Marked response: ~5.10

Measured values drawn from paper PMC2978498 for this set.
